# Target entity: Heat shock protein HSP 90-alpha (Homo sapiens)
# Format: functional, organism-based
Activity calls are given as the source filed them.
Endpoint name: AC50

Use these answered entries as a reference point.
# Compound, Observed
records = [
    ("C=CCN1C(=O)/C(=N/Nc2ccccc2O)c2ccccc21", "10.9 µM (active)"),
    ("Cc1cccc(C)c1N=Nc1c(C)cc(O)cc1C", "8.38 µM (active)"),
    ("Cc1ccc(/C=C/C(=O)c2ccccc(=O)c2O)c(C)c1", "2.05 µM (active)"),
]

# input So what's the measured AC50 for this one? C/C(CC(=O)Nc1cc(C)ccn1)=N\NC(=O)c1cccc(C)c1O
# output 49.5 µM (active)

# input So what's the measured AC50 for this one? O=S(=O)(NC1CC2CCC1C2)c1ccc(Br)cc1 (stereo unspecified)
# output 1.6 µM (active)

# input So what's the measured AC50 for this one? CC1Oc2cc3oc4c(O)c(O)ccc4c(=O)c3c(O)c2C1(C)C (stereo unspecified) [TOXYLOXANTHONE C]
# output 38 µM (active)

# input So what's the measured AC50 for this one? O=C1OC(c2ccccc2)(c2ccc3cc(O)ccc3c2)c2ccccc21 (stereo unspecified)
# output 8.23 µM (active)

# input So what's the measured AC50 for this one? O=C1C2(Cl)C3(Cl)C4(Cl)C(Cl)(Cl)C5(Cl)C3(Cl)C1(Cl)C5(Cl)C24Cl (stereo unspecified) [KEPONE]
# output 2.68 µM (active)

# input So what's the measured AC50 for this one? CSc1ccccc1OCc1cc(C(=O)N2CCN(C)C(c3ccccc3)C2)no1 (stereo unspecified)
# output 1.64 µM (active)

# input So what's the measured AC50 for this one? Oc1cccc2ccc(/C=C/c3ccccc3Cl)nc12
# output 11.6 µM (active)

# input So what's the measured AC50 for this one? Cc1occc1-c1nnc(-c2cc([N+](=O)[O-])cc([N+](=O)[O-])c2)o1
# output 2.74 µM (active)

====

# Measurement protocol: growth suppression of beta-catenin-knockout colon cells, dose response, cell-based, HCT116, human colon tumor (AID 1045);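 note: HCT116 colon tumor cells with beta catenin knocked out; cells exposed to compound for 60 hours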
# Format: functional
Active and inactive are the calls of the source. No rule for the calls is given here.
Below, each entry is listed with its recorded EC50.

Use these answered entries as a reference point.
# Record smiles, Endpoint name, Observed
data = [
    ("Oc1ccc(Nc2nc3ccccc3nc2Nc2ccc(O)cc2)cc1", "EC50", "1.19 µM (active)"),
    ("CCCCCCCCCn1c2c(c(=N)c3c1CCC3)CCC2", "EC50", "0.561 µM (active)"),
    ("CCN(CC)S(=O)(=O)c1ccc2c(c1)C(=NO)c1cc(S(=O)(=O)N(CC)CC)ccc1-2", "EC50", "7.08 µM (active)"),
]

# input So what's the measured EC50 for this one? C/C(=N/NC(=O)c1ccc(Cl)s1)c1ccc(NC(=O)COc2ccc(Cl)cc2)cc1
# output 22.2 µM (active)

# input So what's the measured EC50 for this one? CN1CC2=Cc3ccccc3OC23Oc2ccccc2C=C3C1
# output 23 µM (active)

====

# Target entity: Voltage-dependent T-type calcium channel subunit alpha-1H (Homo sapiens);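 note: channel activity triggered by adding a high calcium stimulation buffer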
# Sequence (O95180 whole entry): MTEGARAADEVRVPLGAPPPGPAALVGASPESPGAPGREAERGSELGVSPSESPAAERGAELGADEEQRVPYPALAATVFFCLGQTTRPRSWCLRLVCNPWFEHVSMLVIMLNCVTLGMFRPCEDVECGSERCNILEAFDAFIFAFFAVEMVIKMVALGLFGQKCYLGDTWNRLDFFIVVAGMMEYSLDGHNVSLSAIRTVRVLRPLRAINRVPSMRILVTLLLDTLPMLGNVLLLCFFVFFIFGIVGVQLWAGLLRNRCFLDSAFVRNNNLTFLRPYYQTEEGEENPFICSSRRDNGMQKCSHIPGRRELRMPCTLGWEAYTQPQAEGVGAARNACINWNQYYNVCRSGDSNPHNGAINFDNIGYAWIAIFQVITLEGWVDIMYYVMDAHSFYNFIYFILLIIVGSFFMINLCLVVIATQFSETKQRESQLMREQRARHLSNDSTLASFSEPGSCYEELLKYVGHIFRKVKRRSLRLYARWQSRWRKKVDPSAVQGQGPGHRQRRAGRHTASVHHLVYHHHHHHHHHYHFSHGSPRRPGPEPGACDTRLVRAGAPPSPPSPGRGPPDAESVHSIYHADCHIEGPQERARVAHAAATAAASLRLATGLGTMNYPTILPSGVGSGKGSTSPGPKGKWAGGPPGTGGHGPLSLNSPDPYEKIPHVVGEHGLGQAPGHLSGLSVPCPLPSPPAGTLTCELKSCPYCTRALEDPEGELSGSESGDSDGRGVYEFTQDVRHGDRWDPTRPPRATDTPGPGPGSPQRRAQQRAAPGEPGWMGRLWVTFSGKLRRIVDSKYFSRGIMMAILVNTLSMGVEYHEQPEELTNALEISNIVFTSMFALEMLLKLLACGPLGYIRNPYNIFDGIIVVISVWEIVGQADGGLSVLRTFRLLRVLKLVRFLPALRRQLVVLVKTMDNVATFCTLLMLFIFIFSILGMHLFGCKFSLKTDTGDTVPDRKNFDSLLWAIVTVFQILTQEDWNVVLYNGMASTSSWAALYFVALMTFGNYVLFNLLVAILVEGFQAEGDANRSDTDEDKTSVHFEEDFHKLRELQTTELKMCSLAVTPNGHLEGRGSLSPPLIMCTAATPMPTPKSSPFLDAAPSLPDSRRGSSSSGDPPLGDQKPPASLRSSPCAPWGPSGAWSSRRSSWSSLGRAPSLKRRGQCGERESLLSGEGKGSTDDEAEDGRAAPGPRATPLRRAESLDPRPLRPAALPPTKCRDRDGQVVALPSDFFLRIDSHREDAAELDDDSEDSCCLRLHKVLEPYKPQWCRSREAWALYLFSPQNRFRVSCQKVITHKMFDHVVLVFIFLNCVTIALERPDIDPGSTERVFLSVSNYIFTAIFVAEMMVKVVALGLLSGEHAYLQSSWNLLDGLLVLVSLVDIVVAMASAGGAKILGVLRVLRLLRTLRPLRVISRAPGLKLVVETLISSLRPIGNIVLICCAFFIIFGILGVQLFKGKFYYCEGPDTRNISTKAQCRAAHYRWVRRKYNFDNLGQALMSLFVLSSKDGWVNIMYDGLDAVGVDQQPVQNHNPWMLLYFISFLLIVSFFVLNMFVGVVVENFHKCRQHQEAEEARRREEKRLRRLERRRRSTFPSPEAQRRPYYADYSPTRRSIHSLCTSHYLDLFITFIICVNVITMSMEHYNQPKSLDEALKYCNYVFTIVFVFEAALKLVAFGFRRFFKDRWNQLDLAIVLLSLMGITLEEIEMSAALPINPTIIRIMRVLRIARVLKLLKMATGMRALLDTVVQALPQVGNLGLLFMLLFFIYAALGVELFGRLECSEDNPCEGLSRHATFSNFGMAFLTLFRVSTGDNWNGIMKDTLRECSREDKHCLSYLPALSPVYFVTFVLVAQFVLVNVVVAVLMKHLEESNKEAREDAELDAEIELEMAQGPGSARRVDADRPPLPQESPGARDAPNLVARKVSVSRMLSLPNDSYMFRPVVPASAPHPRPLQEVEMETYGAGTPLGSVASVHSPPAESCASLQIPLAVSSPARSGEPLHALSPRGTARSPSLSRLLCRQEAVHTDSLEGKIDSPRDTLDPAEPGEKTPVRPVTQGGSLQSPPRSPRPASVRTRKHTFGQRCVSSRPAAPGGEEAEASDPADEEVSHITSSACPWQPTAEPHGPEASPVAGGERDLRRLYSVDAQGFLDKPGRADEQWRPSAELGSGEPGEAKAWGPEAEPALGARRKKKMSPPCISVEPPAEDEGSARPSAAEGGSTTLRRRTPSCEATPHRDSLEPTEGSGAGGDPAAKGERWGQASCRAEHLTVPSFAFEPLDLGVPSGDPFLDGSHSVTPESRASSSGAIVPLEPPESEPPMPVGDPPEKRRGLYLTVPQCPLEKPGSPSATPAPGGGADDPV
# Type: functional
Calls of active or inactive are those of the source.
Endpoint name: EC50

# Compound, Endpoint name, Observed
data = [
    ("Cc1oc(-c2ccc(Cl)cc2)nc1CN1CCC(C(=O)NCc2cccs2)CC1", "EC50", "4.32 µM (active)"),
    ("CCN(CC)S(=O)(=O)c1ccc2c(c1)C(=NO)c1cc(S(=O)(=O)N(CC)CC)ccc1-2", "EC50", "1.6 µM (active)"),
    ("Cc1ccc(-c2noc(CSc3nnc(Cc4ccccc4)n3-c3ccc(Cl)cc3)n2)cc1", "EC50", "4.98 µM (active)"),
]

Okay, now this compound:
# input Lab note: need EC50 for Cc1ccc(NC(=O)C(Cc2ccccc2)N2C(=O)C3C4CCC(C4)C3C2=O)cc1Cl (centres undefined) on Voltage-dependent T-type calcium channel subunit alpha-1H (Homo sapiens), anyone have it?
# output 5.73 µM (active)
